Tested on: SF-295
experimentSummary: NCI tumour cell line growth inhibition, 48 h
The source made the active and inactive calls. No stated cut-off is given here; in the data, active = GI50 up to about 1.1 µM and inactive = higher.
Labels: active, inactive

molecule	targetSystem	classLabel
NC1=NC(c2ccccc2)CC(c2cc(Cl)cc(Br)c2O)=N1 (stereo unspecified)	SF-295	inactive
O=c1oc2cc(O)ccc2cc1-c1nc2ccccc2s1	SF-295	inactive
O=C1OC(CC(=O)c2ccc(F)cc2)C(Cl)=C1Cl (stereo unspecified)	SF-295	inactive
O=C(O)c1cc2ccccc2c(/N=N/c2ccc(S(=O)(=O)Nc3ncccn3)cc2)c1O	SF-295	inactive
c1ccc2c(c1)N[C@@H]1c3[nH]c4ccccc4c3CC[C@H]21	SF-295	inactive
COc1cc2c(c(OC)c1OC)-c1ccc(SC)c(=O)cc1[C@@H](NCc1ccccc1[N+](=O)[O-])CC2	SF-295	active
